Data credit: ChEMBL document CHEMBL1129519

# maps each entry to its IC50
Target: Neprilysin (Oryctolagus cuniculus, UniProt P08049)
Sequence (P08049 whole entry): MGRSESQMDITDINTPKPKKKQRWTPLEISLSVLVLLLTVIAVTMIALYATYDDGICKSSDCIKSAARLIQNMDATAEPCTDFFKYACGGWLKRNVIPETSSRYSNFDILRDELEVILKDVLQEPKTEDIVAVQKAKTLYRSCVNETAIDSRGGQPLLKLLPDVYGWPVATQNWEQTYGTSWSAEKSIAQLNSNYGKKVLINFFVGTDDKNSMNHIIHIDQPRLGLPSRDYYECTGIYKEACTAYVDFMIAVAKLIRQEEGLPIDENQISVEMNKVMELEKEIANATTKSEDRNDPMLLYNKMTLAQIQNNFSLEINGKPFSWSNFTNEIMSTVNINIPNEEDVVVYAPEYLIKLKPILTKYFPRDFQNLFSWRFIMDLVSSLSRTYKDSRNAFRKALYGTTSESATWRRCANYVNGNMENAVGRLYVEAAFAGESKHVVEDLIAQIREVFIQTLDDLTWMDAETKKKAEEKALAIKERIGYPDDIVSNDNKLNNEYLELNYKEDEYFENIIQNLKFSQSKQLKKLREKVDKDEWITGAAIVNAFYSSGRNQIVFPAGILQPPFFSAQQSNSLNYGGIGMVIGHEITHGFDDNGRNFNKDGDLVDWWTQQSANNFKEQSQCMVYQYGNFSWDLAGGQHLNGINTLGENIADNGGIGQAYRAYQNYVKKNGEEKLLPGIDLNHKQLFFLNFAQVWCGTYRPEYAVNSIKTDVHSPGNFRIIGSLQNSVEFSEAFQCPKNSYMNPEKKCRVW
reportedProperty: IC50 (nM)

| molecule | unitAbbrev | experimentalValue |
| --- | --- | --- |
| CCCC[C@H](NC(=O)[C@@H](S)Cc1ccccc1)C(=O)N[C@@H](Cc1ccc(O)cc1)C(=O)O | nM | 2.8 |
| O=C(O)[C@H](Cc1cccc2ccccc12)NC(=O)[C@H](Cc1ccccc1)NC(=O)[C@@H](S)Cc1ccccc1 | nM | 120 |
| C[C@H](NC(=O)[C@@H](S)Cc1ccccc1)C(=O)N1CCCC1 | nM | 22 |
| CC(c1ccccc1)[C@H](S)C(=O)N[C@H](C(=O)N1CCCC[C@H]1C(=O)O)C(C)C (stereo partly specified) | nM | 180 |
| CC(C)(NC(=O)[C@@H](S)CCc1ccccc1)C(=O)N1CCCC1C(=O)O (stereo partly specified) | nM | 46 |
| CC[C@@H](C)[C@H](NC(=O)[C@@H](S)c1ccccc1)C(=O)N1CCCC1C(=O)O (stereo partly specified) | nM | 130 |
| O=C(O)[C@H](Cc1ccc(O)cc1)NC(=O)[C@H](Cc1ccccc1)NC(=O)[C@@H](S)CCc1ccccc1 | nM | 20 |
| CC[C@@H](C)[C@H](S)C(=O)N[C@H](C(=O)N[C@@H](Cc1ccc(O)cc1)C(=O)O)C(C)c1ccccc1 (stereo partly specified) | nM | 32 |
| O=C(O)[C@H](COCc1ccccc1)NC(=O)[C@H](Cc1ccccc1)NC(=O)[C@@H](S)Cc1ccccc1 | nM | 50 |
| O=C(O)C1CCCN1C(=O)[C@H](Cc1ccccc1)NC(=O)[C@@H](S)Cc1ccccc1 (stereo partly specified) | nM | 30 |
| C[C@H](NC(=O)[C@H](Cc1ccccc1)NC(=O)[C@@H](S)Cc1ccccc1)C(=O)O | nM | 2.3 |
| O=C(O)[C@H](Cc1c[nH]c2ccccc12)NC(=O)[C@H](Cc1ccccc1)NC(=O)[C@@H](S)Cc1ccccc1 | nM | 50 |
| CC[C@H](C)[C@H](S)C(=O)N[C@H](C(=O)N1CCC[C@H]1C(=O)O)C(C)C | nM | 190 |
| C=C(C)[C@@H]1CC[C@]2(C(=O)N[C@H](C(=O)O)[C@@H](C)CC)CC[C@]3(C)[C@H](CC[C@@H]4[C@@]5(C)CC[C@H](O)C(C)(C)[C@@H]5CC[C@]43C)[C@@H]12 | nM | 5.5 |
| CC(C)C[C@H](NC(=O)[C@@H](S)Cc1ccccc1)C(=O)N[C@@H](Cc1ccc(O)cc1)C(=O)O | nM | 2.2 |
| CC[C@H](C)[C@H](S)C(=O)N[C@@H](C)C(=O)N1c2ccccc2CC1C(=O)O (stereo partly specified) | nM | 180 |
